As shown below, each of these molecules has a reported IC50 value.
# Tested on: Leishmania donovani
# TEST_DESCRIPTION: Antileishmanial activity against Leishmania donovani promastigotes by Alamar Blue assay
# Type: functional, organism-based

{"MOLECULE": "COc1cc(NC(C)CCCNC(C)CCCNC(C)CCCN)c2nc(C(C)(C)C)ccc2c1.Cl (centres undefined)", "RESULT_UNITS": "µg/mL", "IC50": 1.6}
{"MOLECULE": "CCCCCOc1c(OC)cc(NC(C)CCCNC(C)CCCNC(C)CCCN)c2nccc(CC)c12.Cl (centres undefined)", "RESULT_UNITS": "µg/mL", "IC50": 3.5}
{"MOLECULE": "CCCCOc1c(OC)cc(NC(C)CCCNC(C)CCCN)c2nccc(CC)c12.Cl (centres undefined)", "RESULT_UNITS": "µg/mL", "IC50": 3.5}
{"MOLECULE": "CCCCCOc1c(OC)cc(NC(C)CCCNC(C)CCCNC(C)CCCNC(C)CCCN)c2nccc(CC)c12.Cl (centres undefined)", "RESULT_UNITS": "µg/mL", "IC50": 3.1}
